test system: TNFα release in d-U937 cells; experiment: LPS-induced TNFα release in d-U937 cells; assay type: cell-based, human; settings: Homo sapiens, dU937, relative to 10 μg/mL BIRB796, read-out: LPS/TNFα REC50 d-U937
Could you please report measured pEC50 for the items listed next?
Entry type: numeric. Quantity: pEC50, the -log10 of concentration in molar units.

Consider CNCC(=O)Nc1cc(Oc2ccc(NC(=O)Nc3cc(C(C)(C)C)nn3-c3ccc(CO)cc3)c(Cl)c2Cl)ccn1 . Its measured pEC50 is 9.05

Consider COCC(=O)Nc1cc(COc2ccc(NC(=O)Nc3cc(C(C)(C)C)nn3-c3ccc(OC)cc3)c(Cl)c2Cl)ccn1 . Its measured pEC50 is 7.08

Consider COCC(=O)Nc1cc(Oc2ccc(NC(=O)Nc3cc(C(C)(C)C)nn3-c3ccc(C)cc3)c(Cl)c2C#N)ccn1 . Its measured pEC50 is 10.00

Consider CN(C)CCCC(=O)Nc1cc(Oc2ccc(NC(=O)Nc3cc(C(C)(C)C)nn3-c3ccc(CO)cc3)c(Cl)c2Cl)ccn1 . Its measured pEC50 is 8.80
